# measured on: sPLA2-X (Homo sapiens, UniProt O15496)
# Sequence (O15496 43-165): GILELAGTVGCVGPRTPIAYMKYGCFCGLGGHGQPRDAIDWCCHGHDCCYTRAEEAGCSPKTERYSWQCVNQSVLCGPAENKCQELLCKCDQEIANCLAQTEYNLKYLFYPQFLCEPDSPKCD
assay endpoint: pIC50
The quantity pIC50 is defined as the negative base-10 logarithm of the molar concentration.

## Input Quick one: pIC50 for `NC(=O)c1ccc(Cc2ccccc2)cc1-c1cccc(CC2(C(=O)O)CC2)c1` ?
## Output 6.24

====

# measurement protocol: Intrinsic clearance in human hepatocytes
# Format: in vitro ADME
# settings: pH 7.4
assay endpoint: hepatocyte CLint at 1 µM (µL/min/1e6 cells)
Report as a plain number; the unit µL/min/1e6 cells is understood.

## Input Quick one: hepatocyte CLint at 1 µM for NC(=O)c1ccc(Cc2ccccc2)cc1-c1cccc(CC2(C(=O)O)CC2)c1 [Compound 9] ?
## Output 21

====

# Tested on: human plasma sPLA2 activity
# measurement protocol: Human plasma sPLA2 inhibition assay
# Type: biochemical
# settings: read-out: plasma ICu,50, plasma sPLA2 IC50 × Fu/100
assay endpoint: IC50 (pM)
Report as a plain number; the unit pM is understood.

## Input Lab note: need IC50 for C[C@H](Cc1cccc(-c2cc(Cc3ccccc3)ccc2C(N)=O)c1)C(=O)O [(R)-7] on human plasma sPLA2 activity, anyone have it?
## Output 100

## Input Lab note: need IC50 for `NC(=O)c1ccc(Cc2ccccc2)cc1-c1cccc(CCC(=O)O)c1` on human plasma sPLA2 activity, anyone have it?
## Output 7000

## Input Lab note: need IC50 for CCC(Cc1cccc(-c2cc(Cc3ccccc3)ccc2C(N)=O)c1)C(=O)O (stereo not shown) on human plasma sPLA2 activity, anyone have it?
## Output 800

## Input Lab note: need IC50 for `NC(=O)c1ccc(Cc2ccccc2)cc1-c1cccc(CC2(C(=O)O)CC2)c1` on human plasma sPLA2 activity, anyone have it?
## Output 900

====

# measurement protocol: Pharmacokinetics in rat
# settings: in vivo, iv, 2 μmol/kg
assay endpoint: clearance
I'd appreciate it if you included the unit after the number.

## Input Quick one: clearance for C[C@H](Cc1cccc(-c2cc(Cc3ccccc3)ccc2C(N)=O)c1)C(=O)O [(R)-7] ?
## Output 1 mL/min/kg

====

# measured on: IKs (Homo sapiens, UniProt P51787)
# Sequence (P51787 whole entry): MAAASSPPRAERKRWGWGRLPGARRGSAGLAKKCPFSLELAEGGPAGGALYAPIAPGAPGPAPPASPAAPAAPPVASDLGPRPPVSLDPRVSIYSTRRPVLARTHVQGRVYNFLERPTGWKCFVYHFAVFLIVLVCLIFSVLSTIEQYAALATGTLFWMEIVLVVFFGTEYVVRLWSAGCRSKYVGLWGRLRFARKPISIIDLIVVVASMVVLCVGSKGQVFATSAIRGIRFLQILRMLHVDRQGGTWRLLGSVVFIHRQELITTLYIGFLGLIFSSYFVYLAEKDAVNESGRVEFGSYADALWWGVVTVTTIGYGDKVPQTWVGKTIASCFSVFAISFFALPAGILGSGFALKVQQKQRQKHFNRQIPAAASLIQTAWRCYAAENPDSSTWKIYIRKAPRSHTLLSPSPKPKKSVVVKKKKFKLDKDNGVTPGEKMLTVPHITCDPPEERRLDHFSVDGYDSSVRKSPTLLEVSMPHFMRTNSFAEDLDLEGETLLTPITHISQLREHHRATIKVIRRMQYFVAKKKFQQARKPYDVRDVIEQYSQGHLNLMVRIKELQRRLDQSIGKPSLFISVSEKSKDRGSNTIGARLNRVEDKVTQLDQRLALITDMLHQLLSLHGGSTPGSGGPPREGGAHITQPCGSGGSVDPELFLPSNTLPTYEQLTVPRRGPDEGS
# measurement protocol: IonWorks patch clamp, CHO cells expressing IKs
# Assay type: cell-based
pIC50: −log10 of the molar value.
assay endpoint: pIC50

## Input Lab note: need pIC50 for NC(=O)c1ccc(Cc2ccccc2)cc1-c1cccc(CCC(=O)O)c1 [Compound 4] on IKs (Homo sapiens, UniProt P51787), anyone have it?
## Output < 4.48

====

# measurement protocol: Pharmacokinetics in mouse
# settings: in vivo, iv, 10 μmol/kg
assay endpoint: clearance (mL/min/kg)
Report as a plain number; the unit mL/min/kg is understood.

## Input Quick one: clearance for C[C@H](Cc1cccc(-c2cc(Cc3ccccc3)ccc2C(N)=O)c1)C(=O)O [(R)-7] ?
## Output 9.2

====

Sequence of the target: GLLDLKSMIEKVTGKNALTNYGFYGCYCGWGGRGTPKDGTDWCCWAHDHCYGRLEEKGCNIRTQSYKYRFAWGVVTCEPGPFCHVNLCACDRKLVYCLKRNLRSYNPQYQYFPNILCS
assay endpoint: pIC50
The quantity pIC50 is defined as the negative base-10 logarithm of the molar concentration.

## Input Quick one: pIC50 for `NC(=O)c1ccc(Cc2ccccc2)cc1-c1cccc(CC2(C(=O)O)CC2)c1` ?
## Output 6.60

====

# measurement protocol: Pharmacokinetics in rat
# settings: Sprague-Dawley, in vivo, iv, 2 μmol/kg
assay endpoint: clearance (mL/min/kg)
Report as a plain number; the unit mL/min/kg is understood.

## Input Quick one: clearance for NC(=O)c1ccc(Cc2ccccc2)cc1-c1cccc(CCC(=O)O)c1 [Compound 4] ?
## Output 1

====

# measurement protocol: Pharmacokinetics in dog
# settings: in vivo, iv, 1 μmol/kg
assay endpoint: clearance (mL/min/kg)
Report as a plain number; the unit mL/min/kg is understood.

## Input Quick one: clearance for C[C@H](Cc1cccc(-c2cc(Cc3ccccc3)ccc2C(N)=O)c1)C(=O)O [(R)-7] ?
## Output 0.2

Source of measurements: paper PMC5066155
